For each of the compounds below, state its TGI.
test system: HCT-15 colon; test: NCI tumour cell line growth inhibition, 48 h

Measured TGI of `O[C@H]1[C@H]2c3cc4c(cc3CN3CCC(=C[C@@H]1O)[C@H]23)OCO4` : 5.32 µM

The compound listed as `O=c1c2cccnc2n2n1Cc1ccccc1C2` has a reported TGI of > 100 µM

Looking up `Cc1ccc(-c2nnc(-c3ccc4ccccc4c3)o2)cc1` , I found its TGI recorded as > 100 µM

Field TGI (entry CN(C)c1ccc(C2CC(c3ccc4ccccc4c3O)=NN2)cc1 (stereo unspecified) ) reads > 100 µM

According to the records, this compound `C/C(CCn1[nH]c(=O)ccc1=O)=N\O` displays TGI of > 100 µM

Query `CC(=O)c1cccc(Nc2nc3ccccc3c3occc23)c1` yields TGI of > 100 µM
